Reported Kd values are given for each entry in this list.
Target: T1, AfAgo (Archaeoglobus fulgidus DSM 4304, UniProt O28951 1-427)
T1 sequence: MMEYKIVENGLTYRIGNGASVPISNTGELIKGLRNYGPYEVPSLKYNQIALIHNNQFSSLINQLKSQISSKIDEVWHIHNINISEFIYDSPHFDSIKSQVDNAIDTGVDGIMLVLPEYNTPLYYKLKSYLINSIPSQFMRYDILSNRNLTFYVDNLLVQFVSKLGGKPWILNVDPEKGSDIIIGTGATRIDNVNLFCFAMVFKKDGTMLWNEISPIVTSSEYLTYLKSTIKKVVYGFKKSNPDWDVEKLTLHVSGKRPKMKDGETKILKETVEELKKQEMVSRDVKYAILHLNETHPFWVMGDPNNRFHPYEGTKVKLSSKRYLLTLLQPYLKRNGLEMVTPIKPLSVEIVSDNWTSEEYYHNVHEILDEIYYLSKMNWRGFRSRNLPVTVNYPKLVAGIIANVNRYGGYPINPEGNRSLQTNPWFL
Experiment: EMSA; pre-formed duplex; EMSA: 40 mM Tris-acetate pH 8.4 (25 C), 1 mM EDTA, 100 mM K-acetate, 0.1 mg/ml BSA, 1 mM DTT, 10% glycerol; 5 nM NA (1 nM 32P + 4 nM cold); 10 min at 25 C
Settings: protein: recombinant; tags: N-terminal His (HisTrap; construct name NHis-Af1318); label: 5'-32P; blunt
# unit: nM | format: bare number

Reference set, count: 2
Challenge: Which Kd reading was recorded for the binder MZ-1480/MZ-1481 dsRNA (dsRNA, 5'-phosphate) RNA 1: AUUGUACACGGCCGAAU RNA 2: AUUCGGCCGUGUACAAU ?
Response given: 15

Challenge: Which Kd reading was recorded for the binder MZ-1447/MZ-1455 dsDNA (dsDNA, 5'-phosphate) DNA 1: ATTGTACACGGCCGAAT DNA 2: ATTCGGCCGTGTACAAT ?
Response given: 37

More entries:
Challenge: Which Kd reading was recorded for the binder MZ-1480/MZ-1455 RNA/DNA heteroduplex (DNA:RNA, 5'-phosphate) RNA: AUUGUACACGGCCGAAU DNA: ATTCGGCCGTGTACAAT ?
Response given: 6.1
